- Experimental Protocol: soluble on expression in E. coli; label from the status in PepcDB or PDB records
Quantity Name: soluble on expression in E. coli

- Record Sequence: "MGSRENLYFQGLEHHHHHHHMKIISKMLVGALALAVTNVYAAELMTKAEFEKVESQYEKIGDISTSNEMSTADAKEDLIKKADEKGADVLVLTSGQTDNKIHGTANIYKKK"
  Quantity Name: "soluble on expression in E. coli"
  Value Measured: "soluble"
- Record Sequence: "MASVPENQAPKAIFTFSPEDPVTDENVVFNASNSIDEDGTIAYYVWDFGDGYEGTSTTPTITYKYKNPGTYKVKLIVTDNQGASSSFTATIKVTSATGDNSKFNFEDGTLGGFTTSGTNATGVVVNTTEKAFKGERGLKWTVTSEGEGTAELKLDGGTIVVPGTTMTFRIWIPSGAPIAAIQPYIMPHTPDWSEVLWNSTWKGYTMVKTDDWNEITLTLPEDVDPTWPQQMGIQVQTIDEGEFTIYVDAIDWLEHHHHHH"
  Quantity Name: "soluble on expression in E. coli"
  Value Measured: "soluble"
- Record Sequence: "MKILVIGGPTAIGKSDLACCVAQKLNGEIISADSMAVYKFMDIGTAKPLECMKKVPHHLIDVVEPGGYFDAKIFEEMAKEKIEEIKRKGKVPIVVGGTYLYIQALLYGIDETPKPDWNLRNKLYEIARKKGNDYLYEKLKAIDPKYAKKIHKNDLRRIVRALEVFINTGKPFSSFHSWNKPKMDFVGIYLKRSPESLYKRIENRVYDMVKDGLLEEVKKLLEMGYENFLTSGQAIDYKEFVPCAKGEKSLEECIKEAIKNTKKQAKRQIRWFRKQGWHEIDLDKLSIEEACEEVVRIYKDANKTKLEHHHHHH"
  Quantity Name: "soluble on expression in E. coli"
  Value Measured: "not soluble"
- Record Sequence: "MRIVSLCPSNTELLAYLGRLDDVAAVDDSSDWPPEVKQLPKVGPDLHIDMDQVEALKPDLVVASLSVPGMERNVKELKRRGLPHLVLAPNSLDDIANDLLRLGEALGETKKAAELVRRYHDVLDWHRERAASAEPARLYWEWWPRPVFTPGGANWLSELSELAGGRNIFSDIPQASVQTEWDDVLARNPSHILLVWVGVQTKKMSPKAVTARPNAQQAEAVRTGNIHILEESLYCRPSPRLLVGLKKLAPLLHPALFPPADDSDPLLGG"
  Quantity Name: "soluble on expression in E. coli"
  Value Measured: "not soluble"
- Record Sequence: "MGSDKIHHHHHHMSNEFDSDRYSTYWAEEWLDVKQYSPIGRHTRRKIMQLLARCPAPDTFADFGSGEGSLLSMVHAKYPAARLFGCDFASESVRRCRQRLPQAEIVLKDLTDPEPPFAGRVSVGVCSEVLEHIEDDARALHNLGTWAEHVIITVPGGELDESSRAVGHLRHYTKDSLRGLARRAGLEVLHLEEWGFPFSYPWYARVRNKAGYGMMVGRYSMRKKLLCHALYLLFFGNDLFSSGNKLFMLCRGSKA"
  Quantity Name: "soluble on expression in E. coli"
  Value Measured: "not soluble"
- Record Sequence: "MGHHHHHHSHMAYEISKKVLHIVGKTNATYKLIEEGDKILLGLSGGKDSIMLACILARMQKHAPFKFDFKAVTVHYGLGEDLKWLSDLCQEQGIEHEIIYTQIAATINEKRREKSSFCSFCSRLRRGTLYSKALEEGYNKVAIAHHLDDAVESFFMNFTYNGSLRSMPPIYRAENGLLVIRPLIKVREASSIHFVTSQNIPVAPDCNCPAKQPTSDKPPIARLATKNFLKEMQNLHPRFFDSLENAFNNVQANSFSDAKYLDA"
  Quantity Name: "soluble on expression in E. coli"
  Value Measured: "not soluble"

Source listed as the DeepSol protein solubility set.
